Target: mouse TMEM16A mutant V511A (Mus musculus, UniProt Q8BHY3, V511A)
Construct: expressed in transfected cells; host or cells: HEK293T
Sequence (Q8BHY3 whole entry V511A): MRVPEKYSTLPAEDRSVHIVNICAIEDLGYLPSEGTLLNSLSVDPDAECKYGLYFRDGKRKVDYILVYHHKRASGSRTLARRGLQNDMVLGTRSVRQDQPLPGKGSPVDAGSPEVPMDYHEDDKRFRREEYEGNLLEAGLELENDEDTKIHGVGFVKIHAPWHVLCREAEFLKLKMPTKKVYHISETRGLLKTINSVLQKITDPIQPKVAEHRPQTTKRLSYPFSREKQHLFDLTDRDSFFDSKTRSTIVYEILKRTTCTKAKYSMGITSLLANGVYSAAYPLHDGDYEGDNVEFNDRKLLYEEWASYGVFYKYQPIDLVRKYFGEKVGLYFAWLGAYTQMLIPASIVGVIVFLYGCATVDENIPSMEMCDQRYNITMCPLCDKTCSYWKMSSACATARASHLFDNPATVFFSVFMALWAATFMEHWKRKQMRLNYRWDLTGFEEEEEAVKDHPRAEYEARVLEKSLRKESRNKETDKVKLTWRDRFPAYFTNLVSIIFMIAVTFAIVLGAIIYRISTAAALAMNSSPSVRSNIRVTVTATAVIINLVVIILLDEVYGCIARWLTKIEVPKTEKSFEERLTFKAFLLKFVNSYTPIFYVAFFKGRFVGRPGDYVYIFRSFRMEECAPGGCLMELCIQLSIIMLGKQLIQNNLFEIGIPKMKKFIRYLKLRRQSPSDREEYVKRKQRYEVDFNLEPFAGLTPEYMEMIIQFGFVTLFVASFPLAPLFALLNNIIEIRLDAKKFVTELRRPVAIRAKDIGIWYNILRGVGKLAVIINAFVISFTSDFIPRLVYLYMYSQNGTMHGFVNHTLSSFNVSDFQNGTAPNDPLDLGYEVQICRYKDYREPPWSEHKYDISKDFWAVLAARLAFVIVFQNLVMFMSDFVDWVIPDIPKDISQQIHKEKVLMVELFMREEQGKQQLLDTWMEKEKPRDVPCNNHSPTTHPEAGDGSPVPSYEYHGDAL
Experiment: Inside-out patch recording of 1PBC block, mutant V511A
Format: cell-based
Conditions: 120 mV; 2 µM Ca2+
Procedure: HEK293T cells (ATCC CRL-1573) were maintained in Dulbecco’s modified Eagle’s medium (DMEM; Sigma-Aldrich) supplemented with 10 U ml^−1 penicillin, 0.1 mg ml^−1 streptomycin (Sigma-Aldrich), 2 mM L-glutamine (Sigma-Aldrich), and 10% FBS (Sigma-Aldrich) in a humidified atmosphere containing 5% CO2 at 37 °C. […]
pIC50: −log10 of the molar value.
Measure: pIC50

>>> df
                           item_smiles  reported_measurement
0  N#Cc1c(C(F)(F)F)cc(O)n2c1nc1ccccc12                  5.13
